Test: Cytotoxicity against human Hs683 cells after 3 days by MTT assay
Format: functional, cell-based
Settings: Hs 683, 72 h
pIC50: −log10 of the molar value.
# Lookup of reported pIC50 keyed by entry
metric: pIC50

C[C@@H]1O[C@@H](O[C@H]2CC[C@]3(C=O)[C@H]4CC[C@]5(C)[C@@H](c6ccc(=O)oc6)CC[C@]5(O)[C@@H]4CC[C@]3(O)C2)[C@H](O)[C@H](O)[C@H]1O[C@@H]1O[C@H](CO)[C@@H](O)[C@H](O)[C@H]1O [HELLEBRIN]	8.15
C[C@]12CC[C@H](O)C[C@H]1CC[C@@H]1[C@@H]2C(=O)[C@@H](O)[C@]2(C)[C@@H](c3ccc(=O)oc3)CC[C@]12O [BUFARENOGIN]	5.57
C[C@]12CC[C@H](O)C[C@H]1CC[C@@H]1C2=C(O)C(=O)[C@]2(C)[C@@H](c3ccc(=O)oc3)CC[C@]12O [ARGENTINOGENIN]	8.05
C[C@@H]1O[C@@H](O[C@H]2C[C@@H](O)[C@]3(CO)[C@H]4[C@H](O)C[C@]5(C)[C@@H](C6=CC(=O)OC6)CC[C@]5(O)[C@@H]4CC[C@]3(O)C2)[C@H](O)[C@H](O)[C@H]1O [OUABAIN]	7.55
CC(=O)O[C@H]1CC[C@@]2(C)[C@H](CC[C@@H]3[C@@H]2[C@H](OC(C)=O)C(=O)[C@]2(C)[C@@H](c4ccc(=O)oc4)CC[C@]32O)C1	5.58

###

Assay: Cytotoxicity against human Hs683 cells after 3 days by MTT assay
Format: functional, cell-based
Conditions: Hs 683, 72 h
pIC50: −log10 of the molar value.
# Lookup of reported pIC50 keyed by entry
metric: pIC50

CC(=O)O[C@H]1CC[C@@]2(C=O)[C@H](CC[C@@H]3[C@@H]2CC[C@]2(C)[C@@H](c4ccc(=O)oc4)C[C@H]4O[C@]342)C1	5.44
C[C@]12CCC(=O)C=C1CC[C@@H]1[C@@H]2CC[C@]2(C)[C@@H](c3ccc(=O)oc3)CC[C@]12O [SCILLARENONE]	7.14
CC(=O)N[C@@H]1CC[C@@]2(C)[C@H](CC[C@@H]3[C@@H]2CC[C@]2(C)[C@@H](c4ccc(=O)oc4)[C@@H](OC(C)=O)[C@H]4O[C@]342)C1	6.51

###

Experiment: Cytotoxicity against human Hs683 cells after 3 days by MTT assay
Type: functional, cell-based
Details: Hs 683, 72 h
pIC50: −log10 of the molar value.
metric: pIC50

C[C@H]1O[C@@H](O[C@H]2[C@@H](O)C[C@H](O[C@H]3[C@@H](O)C[C@H](O[C@H]4CC[C@@]5(C)[C@H](CC[C@@H]6[C@@H]5C[C@@H](O)[C@]5(C)[C@@H](C7=CC(=O)OC7)CC[C@]65O)C4)O[C@@H]3C)O[C@@H]2C)C[C@H](O)[C@@H]1O	7.40
C[C@@H]1O[C@@H](O[C@H]2CC[C@@]3(C)[C@H](CC[C@@H]4[C@@H]3[C@H](O)C[C@]3(C)[C@@H](c5ccc(=O)oc5)CC[C@]43O)C2)[C@H](O)[C@H](O)[C@H]1O	8.70

###

Tested on: PC-3
Assay: Cytotoxicity against human PC3 cells at <= 10 uM after 3 days by MTT assay
Format: functional, cell-based
Activity calls are given as the source filed them. The rule behind the calls is not given here.
metric: Activity

COC(=O)[C@H]1CC[C@]2(O)[C@@H]3CC[C@@H]4C[C@@H](OC(C)=O)CC[C@]4(C)[C@H]3[C@H](OC(C)=O)[C@@H](OC(C)=O)[C@]12C	inactive
COC(=O)[C@H]1[C@@H](O)[C@H]2O[C@]23[C@@H]2CC[C@@H]4C[C@@H](OC(C)=O)CC[C@]4(C)[C@H]2CC[C@]13C	inactive
COC(=O)[C@H]1CC[C@]2(O)[C@@H]3CC[C@@H]4C[C@@H](OC(C)=O)CC[C@]4(C)[C@H]3[C@H](OC(C)=O)C(=O)[C@]12C	inactive
CC(=O)O[C@H]1CC[C@@]2(C)[C@H](CC[C@@H]3[C@@H]2[C@H](OC(C)=O)C(=O)[C@]2(C)[C@@H]4CC[C@]32OC4=O)C1	inactive
C[C@]12CC[C@H](OC(c3ccccc3)c3ccccc3)C[C@@]1(O)CC[C@@H]1[C@@H]2CC[C@]2(C)[C@@H](C(=O)OC(c3ccccc3)c3ccccc3)CC[C@]12O	inactive
CC(=O)OC[C@H]1CC[C@H]2[C@@H]3CC[C@@H]4C[C@@H](OC(C)=O)CC[C@]4(C)[C@H]3C(=O)[C@@H](OC(C)=O)[C@]12C	inactive
COC(=O)[C@H]1CC[C@]2(OC=O)[C@@H]3CC[C@@H]4C[C@@H](OC(C)=O)CC[C@]4(C)[C@H]3[C@H](OC(C)=O)C(=O)[C@]12C	inactive
COC(=O)[C@H]1CC[C@]2(O)[C@@H]3CC[C@@H]4C[C@@H](OC(C)=O)CC[C@]4(C)[C@H]3[C@H](OC(C)=O)C[C@]12C	inactive
